# Target Or Test System: Cytochrome P450 2C19 (Homo sapiens)
# Sequence (P33261 whole entry): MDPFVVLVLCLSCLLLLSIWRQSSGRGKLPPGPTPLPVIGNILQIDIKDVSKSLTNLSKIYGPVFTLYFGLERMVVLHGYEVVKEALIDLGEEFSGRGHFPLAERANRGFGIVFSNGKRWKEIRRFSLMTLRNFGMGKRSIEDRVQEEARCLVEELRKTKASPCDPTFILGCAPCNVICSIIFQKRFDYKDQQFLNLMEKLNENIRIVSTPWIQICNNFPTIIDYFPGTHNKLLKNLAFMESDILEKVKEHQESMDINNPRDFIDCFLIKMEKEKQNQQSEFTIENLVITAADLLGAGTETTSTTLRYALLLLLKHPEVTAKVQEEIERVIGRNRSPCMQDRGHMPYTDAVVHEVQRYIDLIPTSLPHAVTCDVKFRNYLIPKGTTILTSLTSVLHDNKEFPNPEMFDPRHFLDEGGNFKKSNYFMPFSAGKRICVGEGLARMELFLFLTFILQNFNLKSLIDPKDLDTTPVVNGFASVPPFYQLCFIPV
Property Measured: IC50

Test item COC(=O)N[C@H](C(=O)N1CCC[C@H]1c1ncc(-c2ccc(-c3ccc(-c4cnc([C@@H]5CC6(CN5C(=O)[C@@H](NC(=O)OC)C(C)C)OCCO6)[nH]4)cc3)cc2)[nH]1)C(C)C ; Cytochrome P450 2C19 (Homo sapiens); reported IC50 was > 33 µM

----------
# Target Or Test System: Cytochrome P450 2D6 (Homo sapiens, UniProt P10635)
# Sequence (P10635 whole entry): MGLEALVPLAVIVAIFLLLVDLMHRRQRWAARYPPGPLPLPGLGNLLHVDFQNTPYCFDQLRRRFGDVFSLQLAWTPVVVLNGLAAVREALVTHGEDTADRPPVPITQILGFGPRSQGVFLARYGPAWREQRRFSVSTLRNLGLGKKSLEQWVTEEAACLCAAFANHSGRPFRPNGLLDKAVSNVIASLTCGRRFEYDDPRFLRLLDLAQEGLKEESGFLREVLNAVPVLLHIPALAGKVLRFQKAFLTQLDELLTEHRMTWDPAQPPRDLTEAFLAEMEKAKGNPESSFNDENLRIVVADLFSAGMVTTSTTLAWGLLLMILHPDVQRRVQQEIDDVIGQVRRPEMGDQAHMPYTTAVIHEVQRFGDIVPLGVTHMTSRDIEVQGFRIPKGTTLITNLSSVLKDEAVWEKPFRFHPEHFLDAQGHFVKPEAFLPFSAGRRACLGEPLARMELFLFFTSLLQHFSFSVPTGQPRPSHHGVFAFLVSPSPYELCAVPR
pIC50: −log10 of the molar value.
Property Measured: pIC50

Test item COC(=O)N[C@H](C(=O)N1CCC[C@H]1c1ncc(-c2ccc(-c3ccc(-c4cnc([C@@H]5CC6(CN5C(=O)[C@@H](NC(=O)OC)C(C)C)OCCO6)[nH]4)cc3)cc2)[nH]1)C(C)C ; Cytochrome P450 2D6 (Homo sapiens, UniProt P10635); reported pIC50 was < 4.48
